Listing of recorded GI50 by entry.
- Tested on: SNB-75
- assay.protocol: NCI tumour cell line growth inhibition, 48 h
Active and inactive are the calls of the source. Rule as the data show it: active = GI50 up to about 1.1 µM and inactive = higher.

molecule: CCCCCN1CCN(c2ncccn2)CC1
GI50: > 100 µM (inactive)

molecule: COc1ccc(Cc2nc3ccccc3s2)cc1OC
GI50: 18.8 µM (inactive)

molecule: O=C(/C=C/c1ccc(Cl)cc1)c1ccccc(=O)c1O
GI50: 2.86 µM (inactive)

molecule: Cc1ccc(NC(=O)/C(=N/NC(=O)C[N+](C)(C)C)c2nc3ccccc3nc2O)cc1
GI50: > 100 µM (inactive)

molecule: COc1cc(C[C@H]2c3cc(OC)c(OC)cc3CCN2C)c(Oc2cc3c(cc2OC)-c2c(OC)c(OC)cc4c2[C@H](C3)N(C)CC4)cc1OC [THALICARPINE]
GI50: 7.03 µM (inactive)

molecule: COC(=O)/C=C1/OC(c2ccc(Br)cc2)=C(Br)C1=O
GI50: 7.43 µM (inactive)

molecule: O=P(CCOc1ccccc1OCCP(=O)(c1ccccc1)c1ccc2c(c1)OCCOCCOCCOCCO2)(c1ccccc1)c1ccc2c(c1)OCCOCCOCCOCCO2 (centres undefined)
GI50: > 100 µM (inactive)

molecule: Brc1ccc2c3c1[C@H]1O[C@H]1c1cccc(c1-3)[C@@H]1O[C@H]21
GI50: 13.2 µM (inactive)

molecule: c1cc(C2N3CCCN2CC3)ccn1 (centres undefined)
GI50: > 100 µM (inactive)
